Data origin, for the record: PubChem BioAssay (NCI)

A collection of compounds and their measured growth inhibition
- Assay comment: NCI Yeast Anticancer Drug Screen. Data for the cln2 rad14 strain (AID 165);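 also: 0% = growth equal to vehicle treated cultures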
- Recorded conditions: S. cerevisiae cln2 rad14 strain, at 50.0 µM (retest, dose inferred, filed as 5.0), hits give high values
Compounds without any hit were thinned out: in the full panel of roughly 79,000, 15% have a hit.
Unit % implied. Number only.

Worked cases, answers included:
Compound: COc1ccccc1/C=C1\Sc2scc(-c3ccc(O)c(O)c3)[n+]2C1=O
Parameter measured: growth inhibition
Endpoint unit: %
Meas value: 99

Compound: CC(C)c1ccc2c(c1)CC[C@@H]1[C@](C)(CO)CCC[C@]21C
Parameter measured: growth inhibition
Endpoint unit: %
Meas value: 96

Compound: COC(=O)/C(=C/C=C(c1ccccc1)c1ccccc1)N(C(C)=O)C(C)=O
Parameter measured: growth inhibition
Endpoint unit: %
Meas value: 7

Provide measured growth inhibition value, entry: CC(C)C(=O)[O][Bi]([c]1ccccc1)[c]1ccccc1 90

Give the reported growth inhibition for this compound. CC(=O)/C(=C/n1c(=S)[nH]c2ccc([N+](=O)[O-])cc21)C(=O)Nc1ccc(Cl)cc1 -17

State its growth inhibition for this compound: CC(=O)C(C(=O)CCSCCO)C(SCCO)c1ccc(Cl)c(Cl)c1 (stereo not given) 55

Specify reported growth inhibition for the compound shown: CCCC(=O)Oc1ccc(-c2ccccc2)cc1Br 84

Give recorded growth inhibition. O=C(O)Cc1ccc2c3c(cccc13)CC2 77

Let me know recorded growth inhibition for Nc1ccccc1CC(c1c[nH]c2ccccc12)c1c[nH]c2ccccc12 , thanks. -7

Using the record for CC1=C(CO)C(=O)O[C@@H]([C@@H](C)[C@H]2CC[C@H]3[C@@H]4C[C@@H](O)C5=CC=CC(=O)[C@]5(C)[C@H]4CC[C@]23C)C1 , state its measured growth inhibition. 47
